The reported measurements were obtained from PubChem BioAssay (NCI).

test system: A549 NSCLC; assay: NCI tumour cell line growth inhibition, 48 h
This listing pairs compounds with measured GI50.

The compound identified as `COc1ccc(OC)c2c1[nH]c(=O)c1c3ccccc3cn21` registered its GI50 at 1.02 µM

The compound identified as `COc1cccc(F)c1C(=O)c1cnc(NC2CCN(S(C)(=O)=O)CC2)nc1N` registered its GI50 at 3.15 µM

The compound identified as CC1=C(C(=O)Nc2ccc(F)c(Cl)c2)C(c2ccccc2O)NC(=S)N1 (stereo not given) registered its GI50 at 19.6 µM

The compound identified as `Cn1cc(C2=C(c3ccc(N)cc3)C(=O)NC2=O)c2ccccc21` registered its GI50 at 18.4 µM

The compound identified as `COc1cc(-c2oc(=O)ccc2C#Cc2ccccn2)cc(OC)c1OC` registered its GI50 at 4.15 µM

The compound identified as Cc1ccc(SC2c3ccc(C)cc3Oc3nc(N)c(C#N)c(N)c32)cc1 (stereo not given) registered its GI50 at 4.9 µM

The compound identified as `COC(=O)COc1ccccc1/C=C1\N=C(c2ccccc2)N(c2cc(C(F)(F)F)ccc2Cl)C1=O` registered its GI50 at 97.4 µM

The compound identified as `CO/N=C(/C)c1cccc(Nc2cc(-n3nnc4ccccc43)nc3ccccc23)c1` registered its GI50 at 38.7 µM

The compound identified as `C/C=C(\C)C(=O)O[C@H]1C=CC(=O)O[C@H]1CCC(=O)[C@H](C)O` registered its GI50 at 20.9 µM

The compound identified as `O=C(Nc1ccc(Br)cc1F)c1cc(F)ccc1O` registered its GI50 at 1.69 µM
